Biological target: human recombinant trypsin (rh-trypsin) (Homo sapiens)
Assay: Trypsin inhibitory activity, human recombinant trypsin, BZiPAR fluorescent substrate
Conditions: 30 min at room temperature, read-out: r-h Trypsin inhibitory activity (IC50)
READOUT: pIC50
Just the number, please; pIC50 means minus log10 of the concentration in mol/L.

{"columns": ["COMPOUND", "pIC50"],
 "data": [
  ["N=C(N)Nc1ccc(C(=O)Oc2ccc3cc(C(=O)N(CC(=O)O)Cc4csc(C(=O)O)c4)sc3c2)cc1", 9.15],
  ["N=C(N)Nc1ccc(C(=O)Oc2ccc3cc(C(=O)N[C@@H](Cc4ccc(C(=O)O)cc4)C(=O)O)ccc3c2)cc1", 9.62],
  ["N=C(N)Nc1ccc(C(=O)Oc2ccc3c(CC(=O)N(CC(=O)O)Cc4cccc(C(=O)O)c4)coc3c2)cc1", 8.82],
  ["N=C(N)Nc1ccc(C(=O)Oc2ccc3c(c2)CCC3CC(=O)N[C@@H](Cc2ccc(C(=O)O)cc2)C(=O)O)cc1 (stereo partly drawn)", 9.27],
  ["N=C(N)Nc1ccc(C(=O)Oc2ccc3c(c2)CCC3CC(=O)N(CC(=O)O)Cc2csc(C(=O)O)c2)cc1 (stereo not drawn)", 9.43]
]}

pIC50 recorded for this compound, N=C(N)Nc1ccc(C(=O)Oc2ccc3c(c2)CCC3CC(=O)N(CC(=O)O)Cc2ccc(CC(=O)O)cc2)cc1 (stereo not drawn) , is 9.37

Data point: N=C(N)Nc1ccc(C(=O)Oc2ccc3c(c2)CCCC3CC(=O)N2Cc3cc(C(=O)O)ccc3C[C@@H]2C(=O)O)cc1 (stereo partly drawn) ; pIC50 = 9.60
